Source listed as patent US20120195831A1.

IC50: recorded values
biological target: T1, Her3/Avi/His10 receptor (Homo sapiens (Human), UniProt P21860 20-643, limits assumed); assay: AlphaScreen ligand blocking: antibody titrated against 10 nM biotinylated NRG-1 beta and 10 nM Her3/Avi/His10, % signal
T1 construct: Soluble tagged receptor of the AlphaScreen assay; The antibodies are called anti-hHer3 there; not shown: Avi tag; His10 tag (ten histidines by its name)
T1 sequence (P21860 20-643 limits assumed): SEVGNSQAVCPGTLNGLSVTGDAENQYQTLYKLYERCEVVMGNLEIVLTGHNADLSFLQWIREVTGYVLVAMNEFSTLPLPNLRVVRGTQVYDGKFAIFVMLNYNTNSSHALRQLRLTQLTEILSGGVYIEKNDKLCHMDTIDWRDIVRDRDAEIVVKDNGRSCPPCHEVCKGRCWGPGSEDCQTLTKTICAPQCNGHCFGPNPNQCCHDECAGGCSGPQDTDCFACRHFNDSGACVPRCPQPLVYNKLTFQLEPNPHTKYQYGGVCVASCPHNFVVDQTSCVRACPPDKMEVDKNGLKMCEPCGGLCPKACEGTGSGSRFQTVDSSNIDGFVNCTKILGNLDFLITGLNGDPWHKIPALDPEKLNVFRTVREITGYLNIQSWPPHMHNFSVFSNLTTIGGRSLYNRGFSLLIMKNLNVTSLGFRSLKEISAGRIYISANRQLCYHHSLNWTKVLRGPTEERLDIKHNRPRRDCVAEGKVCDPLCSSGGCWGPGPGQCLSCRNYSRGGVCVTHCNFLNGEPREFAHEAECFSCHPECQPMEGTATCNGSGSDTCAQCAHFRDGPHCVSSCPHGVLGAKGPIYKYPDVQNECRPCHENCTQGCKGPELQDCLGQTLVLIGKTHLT

{"BINDER": "PO-1G2-B6 (antibody, V domains shown, Purified mouse IgG from a hybridoma; also called PO-1G2-B6-HC; PO-1G2-B6-LC) VH: EVQLQQSGPELVKPGASVKISCKASGYSFTGYHIHWMKQSHVESLEWIGRINPYSGVTDYNQNFKDKANLTVDQSSSTAYMELHSLTSEDSAFYYCARTDYYGPWFAYWGQGTLVTVSA VL: DIQMTQSPLSLPVSLGDQASISCRSSPSLVHSNGNTYLHWYLQKPGQSPKLLIYTVSNRFSGVPDRFSGSGSGTDFTLKINRVEAEDLGVYFCSQTTHVPWTFGGGTKLEIKR", "IC50": "42.6 nM"}
{"BINDER": "588E14 (antibody, V domains shown, Purified mouse IgG from a hybridoma; also called 588E14-HC; 588E14-LC) VH: EVQLQQSGPELVGPGESVKISCKGSGYAFTDYGMHWVKQSHAKRLEWIGVITIYDGHTNYNQNFKGKAALTVDKSSNTAYLELARMTSEDSAIYYCARGDYDLFWYLDVWGAGTSVTVSS VL: DIVMTQTPLSLTVSLGDQASISCRSSQNIKHSDGNTYLEWYLQKPGQSPKLLIYKVSNRFSGVPDRFSGSGSGTDFTLKISRVEAEDLGVYFCFQGSHVPLTFGAGTKLELKR", "IC50": "1.44 nM"}
{"BINDER": "588E22 (antibody, V domains shown, Purified mouse IgG from a hybridoma; also called 588E22-HC; 588E22-LC) VH: DVQLQESGPELVGPGESVKISCKGSGYTFTDYGMHWVKQSHAKRLEWIGVITIYDGHTNYNQNFKGKAALTVDKSSNTAYPELARMTSEDSAIYYCARGDYDLFWYLDVWGAGTTVTVSS VL: DVVMTQTPLSLTVSLGDQASISCRSSQNIKHSDGNTYLEWYLQKPGQSPKLLIYKVSNRFSGVPDRFSGSGSGTDFTLKISRVEAEDLGVYFCFQGSHVPLTFGAGTKLELKR", "IC50": "2.08 nM"}
{"BINDER": "588E10 (antibody, V domains shown, Purified mouse IgG from a hybridoma; also called 588E10-HC; 588E10-LC) VH: EVQLQQSGPKLVGPGESVKISCKGSGYTFTDYGMHWVKQSHAKRLEWIGVITIYDGHTNYNQNFKGKAALTVDKSSNTAYLELARMTSEDSAIYYCARGDYDLFWYLDVWGAGTTLTVSS VL: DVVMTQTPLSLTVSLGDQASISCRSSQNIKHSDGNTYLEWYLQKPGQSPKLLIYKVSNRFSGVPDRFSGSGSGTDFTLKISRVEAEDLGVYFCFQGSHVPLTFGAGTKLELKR", "IC50": "2.92 nM"}
{"BINDER": "PO-1C9-C4 (antibody, V domains shown, Purified mouse IgG from a hybridoma; also called PO-1C9-C4-HC; PO-1C9-C4-LC) VH: QVQLQQPGSELVRPGASVKLSCKASGYTFTIFWIHWVKQRPGQGLEWIGNIYPGSGGTNYDEKFKSKATLTVDTFSSTAYMQLSSLTSEDSAVYYCTRWGTGKDYWGQGTTLTVSS VL: DIVLTQSPAIMSASPGEKVTMTCRARSSVSSSYLHWYQQKPGSSPKLWIYSTSNLALGVPARFSGSGSGTSYSLTISSVEAEDAATYYCQQYDSSPFTFGTGTKLEIKR", "IC50": "2.9 nM"}
{"BINDER": "588F42 (antibody, V domains shown, Purified mouse IgG from a hybridoma; also called 588F42-HC; 588F42-LC) VH: EVQLQQSGPELVKPGASVKMSCKASGYTFTSYVMHWVKQKPGQGLEWLGYINPYNDGTKYNEKFKGKATLTSDKSSSTAYMELISLTSEDSAVYYCAREASYGNPFAYWGQGTLVTVSA VL: DIVMTQSPASLSASVGETVTITCRTSENIYSYLAWFQQKQGNSPQLLVYNTKTLAEGVPSRFSGSGSGTQFSLKINSLQPEDFGNYYCQHHYDTPWTFGGGTKLEIK", "IC50": "3.03 nM"}
{"BINDER": "588F41 (antibody, V domains shown, Purified mouse IgG from a hybridoma; also called 588F41-HC; 588F41-LC) VH: EVQLQQSGPELVKPGASVKMSCKASGYTFTSYVMHWVKQKPGQGLEWLGYINPYNDGTKYNEKFKGMATLTSDKSSSTAYMELISLTSEDSAVYYCAREASYGNPFAYWGQGTLVTVSA VL: DIVMTQSPASLSASVGETVTITCRTSENIYSYLAWFQQKQGNSPQLLVYNTKTLAEGVPSRFSGSGSGTQFSLKINSLQPEDFGNYYCQHHYDTPWTFGGGTKLEIKR", "IC50": "1.17 nM"}
{"BINDER": "PO-3H7-E3 (antibody, V domains shown, Purified mouse IgG from a hybridoma; also called PO-3H7-E3-HC; PO-3H7-E3-LC) VH: EVQLQQSGAELVKPGASVKISCKASGYSFTGYYMNWVKQSHGKSLEWIGNINPYYGGSNYNQKFKARATLTVDKSSSTAYMQLNSLTSEDSAVYYCARKGDLYYSMDYWGQGTSVTVSS VL: DIVMTQTPLSLPVSLGDQASISCRSSQSIVHSNGNTYLEWYLQKPGQSPKLLIYKVSNRFSGVPDRFSGSGSGTDFTLKISRVEAEDLGIYYCFQGSHVPPTFGGGTKLELKR", "IC50": "11 nM"}
